Test: Pharmacokinetic assay in Balb/c mice (plasma and brain tissue)
Assay type: in vivo
Conditions: mouse, po; brain tissue, 5 mg/kg p.o., male Balb/c mice; read-out: Half-life t1/2 (converted)
Method: Balb/c mice were used as test animals. The pharmacokinetic behavior in mice (plasma and brain tissue) of the compounds of Examples 2, 3, 5, 6, 9, 13, 59, 60, 61, 63, 71-74, 81, 103, 130, 134, 135, 137, 138, 140, 141, 143, 145 and 146 orally administered at a dose of 5 mg/kg was studied. Each group had 24 male Balb/c mice. […] The main parameters of pharmacokinetics were calculated by WinNonlin 6.1.
As shown below, each of these compounds has a reported half-life value.
# number only, unit h dropped from output

Take a look at these entries with their results.
C[C@@]1(O)CC[C@H]2[C@H](CC[C@@H]3[C@@H]2CC[C@@]2(C)[C@H]3[C@@H]3C[C@@H]3[C@@H]2C(=O)COc2cnc(C(F)(F)F)nc2)C1    2.49
C[C@@]1(O)CC[C@H]2[C@H](CC[C@@H]3[C@@H]2CC[C@@]2(C)[C@H]3[C@H](C3CC3)C[C@@H]2C(=O)Cn2ccc(C#N)n2)C1    2.12

Let us examine a further case.
Problem: Fill in: half-life of CC[C@@H]1C[C@H](C(=O)Cn2ccc(C(F)(F)F)n2)[C@@]2(C)CC[C@H]3[C@@H](CC[C@@H]4C[C@](C)(O)CC[C@@H]43)[C@H]12 is ___
Solution: 1.47

* * *

We begin with a simple list: items and their reported MRT.
assay: Pharmacokinetic assay in Balb/c mice (plasma and brain tissue); assay type: in vivo; conditions: mouse, po; plasma, 5 mg/kg p.o., male Balb/c mice; read-out: Mean residence time MRT
Reply numerically in h, unit not repeated.

Problem: Entry under review: C[C@@H]1C[C@H](C(=O)Cn2nccn2)[C@@]2(C)CC[C@H]3[C@@H](CC[C@@H]4C[C@](C)(O)CC[C@@H]43)[C@H]12 . Reported MRT?
Solution: 1.48

Problem: Follow-up entry: C[C@@]1(O)CC[C@H]2[C@H](CC[C@@H]3[C@@H]2CC[C@@]2(C)[C@H]3[C@@H]3C[C@@H]3[C@@H]2C(=O)Cn2ccc(C(F)(F)F)n2)C1
Solution: 4.03

Problem: Request: C[C@@H]1C[C@H](C(=O)Cn2cc(C#N)c(Cl)n2)[C@@]2(C)CC[C@H]3[C@@H](CC[C@@H]4C[C@](C)(O)CC[C@@H]43)[C@H]12
Solution: 3.31

Problem: Can you check CC[C@@H]1C[C@H](C(=O)Cn2cc(C#N)cn2)[C@@]2(C)CC[C@H]3[C@@H](CC[C@@H]4C[C@](C)(O)CC[C@@H]43)[C@H]12 next?
Solution: 4.96

Problem: Let us now turn to C[C@@H]1C[C@H](C(=O)Cn2ncnn2)[C@@]2(C)CC[C@H]3[C@@H](CC[C@@H]4C[C@](C)(O)CC[C@@H]43)[C@H]12
Solution: 2.42

Problem: Then what about the molecule C[C@@]1(O)CC[C@H]2[C@H](CC[C@@H]3[C@@H]2CC[C@]2(C)C(C(=O)Cn4cc(C#N)cn4)C[C@@H](C4CC4)[C@@H]32)C1 (stereo partly drawn) ?
Solution: 3.5

Origin of values: patent US12139508B2
